System: Ca^+2 influx in Jurkat cells (clone E6-1)
ASSAY_INFO: Calcium influx assay (thapsigargin-stimulated, Fluo-3)
Type: cell-based
CONDITION_LABEL: Homo sapiens; Jurkat cells clone E6-1, thapsigargin 100 nM, 10 min preincubation
RECORDED_ENDPOINT: log10 of IC50 (log10 of the value in µM)

{"MOL_SMILES": "Cc1ccc(-c2cncc3[nH]c4ccc(C)cc4c23)cc1", "log10 of IC50": 0.65}
{"MOL_SMILES": "COc1ccc(-c2cncc3c2c2ccccc2n3Cc2ccccc2)cc1", "log10 of IC50": 0.66}
{"MOL_SMILES": "COC(=O)c1cccc2c1[nH]c1cncc(-c3ccc(C)cc3)c12", "log10 of IC50": 0.52}
{"MOL_SMILES": "COc1cc(OC)cc(-c2cncc3[nH]c4ccccc4c23)c1", "log10 of IC50": -0.15}
{"MOL_SMILES": "Cc1ccc(-c2cncc3[nH]c4c(C)cccc4c23)cc1", "log10 of IC50": -0.15}
{"MOL_SMILES": "COc1ccc(-c2cncc3[nH]c4ccc(Cl)cc4c23)cc1", "log10 of IC50": 1.15}
{"MOL_SMILES": "COc1ccccc1-c1cncc2[nH]c3ccccc3c12", "log10 of IC50": 0.81}
{"MOL_SMILES": "Oc1ccc(-c2cncc3[nH]c4ccccc4c23)cc1", "log10 of IC50": 0.46}
{"MOL_SMILES": "COc1ccc(-c2cncc3[nH]c4ccccc4c23)cc1", "log10 of IC50": -0.52}
{"MOL_SMILES": "OCc1ccc(-c2cncc3[nH]c4ccccc4c23)cc1", "log10 of IC50": 1.18}
{"MOL_SMILES": "COc1ccc(-c2cncc3[nH]c4ccccc4c23)cc1OC", "log10 of IC50": 0.43}
{"MOL_SMILES": "Cc1ccc(-c2cncc3[nH]c4ccccc4c23)c(C)c1", "log10 of IC50": 0.23}
{"MOL_SMILES": "CCOC(=O)c1ccc(-c2cncc3[nH]c4ccccc4c23)cc1", "log10 of IC50": 0.53}
{"MOL_SMILES": "CCCc1cncc2[nH]c3ccccc3c12", "log10 of IC50": 1.24}
{"MOL_SMILES": "Cc1ccc(-c2cncc3[nH]c4cc(CO)ccc4c23)cc1", "log10 of IC50": 0.38}
{"MOL_SMILES": "COc1ccc(-c2cncc3[nH]c4ccccc4c23)c(OC)c1", "log10 of IC50": 0.11}
{"MOL_SMILES": "c1cncc(-c2cncc3[nH]c4ccccc4c23)c1", "log10 of IC50": 1.46}
{"MOL_SMILES": "FC(F)(F)c1ccc(-c2cncc3[nH]c4ccccc4c23)cc1", "log10 of IC50": -0.30}
